biological target: huCTLA4 (Homo sapiens, UniProt P16410); test: Flow binding to CHO cells stably expressing CTLA4; set-up: huCTLA4 and huPD-L1, full-length mammalian surface expression constructs were generated; expressed in transfected cells; host or cells: CHO cells, lentiviral transduction, sorted to >98% purity; settings: Table E23; MFI at 33.3 nM relative to CD80 WT IgV-Fc
Sequence (P16410 36-223): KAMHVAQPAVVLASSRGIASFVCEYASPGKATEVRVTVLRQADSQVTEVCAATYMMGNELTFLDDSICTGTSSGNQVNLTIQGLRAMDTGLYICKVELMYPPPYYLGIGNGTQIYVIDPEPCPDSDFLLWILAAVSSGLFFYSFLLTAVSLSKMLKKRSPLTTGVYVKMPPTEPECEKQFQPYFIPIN
VALUE TYPE: CTLA4 Fold change to WT CD80
Answer with a number only.

H18Y/A26P/E35D/M471/V68M/A71G (protein) VIHVTKEVKEVATLSCGYNVSVEELPQTRIYWQKDKKMVLTMMSGDINIWPEYKNRTIFDITNNLSIMILGLRPSDEGTYECVVLKYEKDAFKREHLAEVTLSVKAD	8.8

Req: Which measured CTLA4 Fold change to WT CD80 value corresponds to H18V/A26Q/E35D/M47V/V68L/A71G/D90G (protein, UniProt P33681 35-288, looked up, variant H18V A26Q E35D M47V V68L A71G D90G) T-lymphocyte activation …: VIHVTKEVKEVATLSCGVNVSVEELQQTRIYWQKDKKMVLTMMSGDVNIWPEYKNRTIFDITNNLSILILGLRPSDEGTYECVVLKYEKGAFKREHLAEVTLSVKADFPTPSISDFEIPTSNIRRIICSTSGGFPEPHLSWLENGEELNAINTTVSQDPETELYAVSSKLDFNMTTNHSFMCLIKYGHLRVNQTFNWNTTKQEHFPDNLLPSWAITLISVNGIFVICCLTYCFAPRCRERRRNERLRRESVRPV ?
Resp: 12.8
